# Measured target: T1, recombinant human transferrin receptor 1 (human, UniProt P02786 89-760)
# T1 construct: Recombinant protein used in ELISA and SPR; also called hTfR1; huTfR1
# T1 sequence (P02786 89-760 limits assumed): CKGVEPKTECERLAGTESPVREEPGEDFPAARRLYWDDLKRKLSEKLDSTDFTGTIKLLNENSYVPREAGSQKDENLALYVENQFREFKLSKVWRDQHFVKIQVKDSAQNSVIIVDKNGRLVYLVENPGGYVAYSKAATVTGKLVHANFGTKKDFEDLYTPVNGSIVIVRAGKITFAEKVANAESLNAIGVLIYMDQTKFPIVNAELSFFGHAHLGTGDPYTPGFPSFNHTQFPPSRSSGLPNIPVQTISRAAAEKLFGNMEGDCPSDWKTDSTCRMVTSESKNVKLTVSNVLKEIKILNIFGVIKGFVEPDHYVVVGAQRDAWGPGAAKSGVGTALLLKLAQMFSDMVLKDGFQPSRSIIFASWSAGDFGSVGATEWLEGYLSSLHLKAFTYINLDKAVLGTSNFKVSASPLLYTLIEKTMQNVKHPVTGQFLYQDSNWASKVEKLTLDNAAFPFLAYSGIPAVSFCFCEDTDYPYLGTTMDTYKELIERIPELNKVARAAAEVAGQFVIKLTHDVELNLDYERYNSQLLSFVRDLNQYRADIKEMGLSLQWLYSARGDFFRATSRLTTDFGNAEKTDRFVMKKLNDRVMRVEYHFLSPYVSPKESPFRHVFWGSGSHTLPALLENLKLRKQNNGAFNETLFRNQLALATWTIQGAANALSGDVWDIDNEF
# Protocol details: ELISA, plate-coated human TfR1, Fab-ASO300 conjugate; printed as 'Conjugate binding affinity ELISA'
pEC50: −log10 of the molar value.
List of pEC50 values.
Measurement kind: pEC50

Binder	Readout number
3A4 (VH3-N54S/Vk4) Fab conjugated to DMPK-targeting oligonucleotide ASO300 (Fab, V domains shown, Fab covalently conjugated to ASO300; also called 3A4 (VH3-N54S/Vk4) conjugate) VH: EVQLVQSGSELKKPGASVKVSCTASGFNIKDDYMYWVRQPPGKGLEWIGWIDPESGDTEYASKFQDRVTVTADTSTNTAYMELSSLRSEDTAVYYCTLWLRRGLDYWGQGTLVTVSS VL: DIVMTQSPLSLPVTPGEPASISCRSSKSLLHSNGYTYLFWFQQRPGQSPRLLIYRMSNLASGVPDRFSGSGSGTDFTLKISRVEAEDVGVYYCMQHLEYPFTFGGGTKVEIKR	8.54
5H12 (VH5-C33Y/Vk4) Fab conjugated to DMPK-targeting oligonucleotide ASO300 (Fab, V domains shown, Fab covalently conjugated to ASO300) VH: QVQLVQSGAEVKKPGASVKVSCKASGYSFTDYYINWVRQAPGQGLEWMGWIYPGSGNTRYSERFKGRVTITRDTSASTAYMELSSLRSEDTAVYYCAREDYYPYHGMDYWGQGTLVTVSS VL: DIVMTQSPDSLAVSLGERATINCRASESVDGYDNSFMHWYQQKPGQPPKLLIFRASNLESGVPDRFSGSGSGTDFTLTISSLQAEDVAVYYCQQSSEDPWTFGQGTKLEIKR	7.63
5H12 (VH5-C33D/Vk4) Fab conjugated to DMPK-targeting oligonucleotide ASO300 (Fab, V domains shown, Fab covalently conjugated to ASO300; also called 5H12 (VH5-C33D/Vk4) conjugate) VH: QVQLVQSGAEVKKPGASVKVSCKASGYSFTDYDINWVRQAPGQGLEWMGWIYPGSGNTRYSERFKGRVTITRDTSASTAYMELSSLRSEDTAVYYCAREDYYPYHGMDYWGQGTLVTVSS VL: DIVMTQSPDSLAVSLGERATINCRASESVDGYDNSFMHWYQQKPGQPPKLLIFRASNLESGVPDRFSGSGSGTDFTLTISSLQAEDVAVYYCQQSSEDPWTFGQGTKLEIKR	6.96
3A4 (VH3/Vk4) Fab conjugated to DMPK-targeting oligonucleotide ASO300 (Fab, V domains shown, Fab covalently conjugated to ASO300; also called 3A4 (VH3/Vk4) conjugate) VH: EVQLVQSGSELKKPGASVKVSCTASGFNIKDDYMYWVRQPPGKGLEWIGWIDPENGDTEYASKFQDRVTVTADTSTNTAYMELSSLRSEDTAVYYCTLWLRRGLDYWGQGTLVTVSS VL: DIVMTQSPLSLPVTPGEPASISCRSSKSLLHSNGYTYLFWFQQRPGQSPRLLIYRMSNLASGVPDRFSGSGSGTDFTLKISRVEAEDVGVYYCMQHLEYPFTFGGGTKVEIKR	8.55
3M12 (VH4/Vk3) Fab conjugated to DMPK-targeting oligonucleotide ASO300 (Fab, V domains shown, Fab covalently conjugated to ASO300; also called 3M12 (VH4/Vk3) conjugate; DMPK oligo conjugate) VH: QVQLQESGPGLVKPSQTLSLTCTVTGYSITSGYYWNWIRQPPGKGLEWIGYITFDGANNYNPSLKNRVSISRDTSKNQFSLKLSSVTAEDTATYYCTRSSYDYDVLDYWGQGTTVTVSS VL: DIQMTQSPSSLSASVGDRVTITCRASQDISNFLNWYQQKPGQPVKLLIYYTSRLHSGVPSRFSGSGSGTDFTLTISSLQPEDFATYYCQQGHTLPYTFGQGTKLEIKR	8.77
